// provenance: patent US20260137802A1

target: cynomolgus monkey CD117 ectodomain (cynomolgus monkey); test: BLI (Octet), biotinylated ectodomain on SA biosensor, 1:1 global fit, bivalent Fc
Reported Kd values for the following binders.
Give the number; pM is assumed, so skip it.

Illustrative cases are given below, each with its answer.
Binder: P-0072 (Fc fusion, also called P72; bivalent form of P38; not shown: Fc fragment) EVQLVESGGGLVQAGGSLRLSCAASGRTSGSYVMGWFRQAPGKEREFVAAISWSAGMTYYADSVKGRFTISRDNAKNTVYLQMNSLKPEDTAVYYCAADQRGVPAYYSDYALYDYWGQGTQVTVSS
Kd (pM): 11.2
--
Binder: P-0054 (Fc fusion, also called P54; bivalent form of P29; not shown: Fc fragment) QVHLVESGGGLVQAGGSLGLSCAASGHTFSNYAMGWFRQAPGKEREFVAAISWSGGSTLYADSVKGRFTISRDNGENTVYLQMNSLKPEDTAVYYCALDSTGVYGTGYVSSRKGRYEYWGQGTLVTVSS
Kd (pM): 19800
--
Binder: P-0058 (Fc fusion, also called P58; bivalent form of P37; not shown: Fc fragment) QVQLVESGGGLVQAGDSLRLSCAVSGRTLSNYFMAWLRQAPGKEREFVAAIHWSLGSTYYQDPVKGRFTISRDKAKNTVYLQMNTLKPEDTATYICAAGQHLSGLGGSAWSIEGDYWGQGTQVTVSS
Kd (pM): 1.66

Now look at this entry.
stdin: Requested read-out: Kd. Entry: P-0056 (Fc fusion, the alignment instead labels 'P35/P57' and 'P32/P56'; also called P56; not shown: Fc fragment) QVQLVESGGGLVQAGGSLRLSCAASGGTFSIYPVGWFRQAPGKQREFVAAIGWSASGTYYGDSVEGRFTVSRDNARSTVYLRMSSLKPDDTAVYYCAAASGSNWRLGAIDEYDSWGQGTQVTVSS
stdout: 647
